Where do these numbers come from? They come from patent US8663616B2.

Measured Maximum Peracetic Acid (PAA) (ppm), C277S (SEQ ID NO: 424), listed per entry for reference.
biological target: C277S (SEQ ID NO: 424) (Thermotoga maritima, UniProt Q9WXT2, C277S); construct: made in house; host or cells: E. coli; type: biochemical; conditions: 100 mM ester, 60 mM H2O2, 40 ppm enzyme, 95 mM phosphate pH 7.2, 37° C.
Sequence (Q9WXT2 whole entry C277S): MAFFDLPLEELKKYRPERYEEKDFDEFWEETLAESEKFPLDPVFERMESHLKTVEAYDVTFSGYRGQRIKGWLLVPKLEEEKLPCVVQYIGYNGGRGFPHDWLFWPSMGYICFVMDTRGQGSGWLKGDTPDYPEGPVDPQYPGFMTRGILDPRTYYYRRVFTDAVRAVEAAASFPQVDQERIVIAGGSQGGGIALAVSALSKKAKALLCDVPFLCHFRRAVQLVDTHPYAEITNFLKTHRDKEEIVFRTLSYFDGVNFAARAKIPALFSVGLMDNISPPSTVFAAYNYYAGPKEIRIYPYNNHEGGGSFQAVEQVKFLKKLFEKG
READOUT LABEL: Maximum Peracetic Acid (PAA) (ppm), C277S (SEQ ID NO: 424)

CC(=O)OC[C@H]1O[C@H](OC(C)=O)[C@H](OC(C)=O)[C@@H](OC(C)=O)[C@@H]1OC(C)=O [α-D-glucose pentaacetate] :: 2091 ppm
CC(=O)OCCCCCOC(C)=O [1,5-pentanediol diacetate] :: 335 ppm
CC(=O)OC[C@H]1O[C@@H](OC(C)=O)[C@H](OC(C)=O)[C@H]1OC(C)=O [β-D-xylofuranose tetraacetate] :: 3354 ppm
CC(=O)OCCOC(C)=O [Ethylene glycol diacetate] :: 1007 ppm
CC(=O)OC[C@H]1OC(OC(C)=O)[C@H](OC(C)=O)[C@@H]1OC(C)=O (stereo partly drawn) :: 3397 ppm
CC(=O)OC[C@H](OC(C)=O)[C@@H](OC(C)=O)[C@H](OC(C)=O)[C@@H](COC(C)=O)OC(C)=O [Sorbitol hexaacetate] :: 712 ppm
CC(=O)OC[C@H]1OC(OC(C)=O)[C@@H](O)[C@@H](OC(C)=O)[C@@H]1OC(C)=O (stereo partly drawn) :: 3593 ppm
CC(=O)OC[C@H]1O[C@@H](OC(C)=O)[C@H](OC(C)=O)[C@@H](OC(C)=O)[C@H]1OC(C)=O [β-D-galactose pentaacetate] :: 2539 ppm
CC(=O)OC1OC[C@@H](OC(C)=O)[C@@H](OC(C)=O)[C@H]1OC(C)=O (stereo partly drawn) :: 3525 ppm
CC(=O)Oc1ccc(C(=O)O)cc1 :: 604 ppm
CC(=O)N[C@@H]1[C@@H](OC(C)=O)[C@H](OC(C)=O)[C@@H](COC(C)=O)O[C@@H]1Cl :: 863 ppm
CC(=O)OC[C@H]1O[C@H](OC(C)=O)[C@@H](OC(C)=O)[C@@H](OC(C)=O)[C@@H]1OC(C)=O [α-D-mannopyranose pentaacetate] :: 4017 ppm
CC(=O)OCC(C)OC(C)=O (stereo not drawn) [Propylene glycol diacetate] :: 1128 ppm
CC(=O)OCc1ccc(C=O)o1 :: 1185 ppm
CC(=O)OC[C@H]1O[C@@H](S)[C@H](OC(C)=O)[C@@H](OC(C)=O)[C@@H]1OC(C)=O [1-thio-β-D glucose-2,3,4,6-tetraacetate] :: 0 ppm
